Reported pKi values for the following molecules.
tested_target: Neuronal acetylcholine receptor
procedure_details: Evaluated for its binding affinity towards Nicotinic acetylcholine receptor in rat brain homogenate
pKi: −log10 of the molar value.

Here is how some molecules turned out for pKi.
- molecule: "CN1[C@@H](CCc2ccccc2)CCC[C@H]1CCc1ccccc1 [LOBELANE]"
  test_result: "< 5.00"
- molecule: "CN(CCCc1ccccc1)CCCc1ccccc1"
  test_result: "< 5.00"

// query Fill in the blank: the reported pKi of `CN1CCCC[C@H]1C[C@H](O)c1ccccc1` is ____.
// result < 5.00
